- Tested on: LasI reporter coupled to the luxCDABE luminescence system
- assay.notes: P. aeruginosa wild-type strain (PA01) QS inhibition assay (luminescence reporter)
- Assay type: cell-based
- measurement.setup: Pseudomonas aeruginosa, PAO1, read-out: IC50, inhibition of luminescence in wild type PAO1 reporter strain

{"molecule": "O=C(CCCCCCCCCCN=C=S)CC(=O)NC1CCOC1=O (stereo not shown) [itc-13]", "IC50 [µM]": 45.2}
{"molecule": "O=C(CCCCCCCCCN=C=S)CC(=O)NC1CCOC1=O (stereo not shown) [itc-12]", "IC50 [µM]": 113}

----------
- system.under.test: LasR (Pseudomonas aeruginosa)
- Construct: expressed in transfected cells; host or cells: E. coli DH5-alpha (pJN105L + pSC11 PlasI-lacZ)
- Sequence (P25084 whole entry): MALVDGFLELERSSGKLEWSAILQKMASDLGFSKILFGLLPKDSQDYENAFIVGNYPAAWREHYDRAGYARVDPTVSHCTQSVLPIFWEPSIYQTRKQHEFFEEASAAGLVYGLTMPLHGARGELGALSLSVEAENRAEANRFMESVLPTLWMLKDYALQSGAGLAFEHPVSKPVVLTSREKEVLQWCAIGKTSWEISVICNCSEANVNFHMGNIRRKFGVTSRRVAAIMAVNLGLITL
- assay.notes: E. coli DH5-alpha LasR agonist/antagonist assay (PlasI-lacZ, beta-galactosidase)
- Format: cell-based, P. aeruginosa
pIC50: −log10 of the molar value.
The following molecules are shown together with reported pIC50 values.

{"molecule": "O=C(CCCCCCCCCN=C=S)CC(=O)NC1CCOC1=O (stereo not drawn)", "pIC50": 4.53}
{"molecule": "O=C(Cc1ccc(Br)cc1)NC1CCOC1=O (stereo not drawn) [4-Br-PHL, reference compound]", "pIC50": 5.32}
{"molecule": "O=C(CCCCCCCCNC(=O)CBr)CC(=O)N[C@H]1CCOC1=O", "pIC50": 4.57}
{"molecule": "O=C(CCCCCCCCNC(=O)CCl)CC(=O)N[C@H]1CCOC1=O", "pIC50": 5.51}
{"molecule": "O=C(CCCCCCCCN=C=S)CC(=O)NC1CCOC1=O (stereo not drawn)", "pIC50": 4.41}
{"molecule": "O=C(CCCCCCCCCCN=C=S)CC(=O)NC1CCOC1=O (stereo not drawn)", "pIC50": 4.72}
